Target: PP2A (Homo sapiens, UniProt P67775)
Sequence (P67775 whole entry): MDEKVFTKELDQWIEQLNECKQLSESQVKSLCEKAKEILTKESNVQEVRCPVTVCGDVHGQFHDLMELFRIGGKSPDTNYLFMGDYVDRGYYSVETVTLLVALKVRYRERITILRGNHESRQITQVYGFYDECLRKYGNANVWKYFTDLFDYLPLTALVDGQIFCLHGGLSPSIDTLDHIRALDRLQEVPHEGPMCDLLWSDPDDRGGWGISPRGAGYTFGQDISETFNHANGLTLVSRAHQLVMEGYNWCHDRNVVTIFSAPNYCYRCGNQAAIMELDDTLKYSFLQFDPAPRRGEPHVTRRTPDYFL
Assay: Inhibition of purified PP2A (Ser/Thr Phosphatase Assay Kit 1)
Format: biochemical

[
  {
    "MOLECULE": "CC(C)(C)OC(=O)N1CCN(C(=O)C2C(C(=O)O)[C@H]3CC[C@@H]2O3)CC1 (stereo partly shown)",
    "TARGET OF ASSAY": "PP2A (Homo sapiens, UniProt P67775)",
    "IC50": "~400 nM"
  }
]
